EXPERIMENTAL_SYSTEM: T1, A-beta42 Oligomer (oligomer prep, made in F12 medium) (human)
T1 construct: also called synthetic AβO
T1 sequence (peptide, as listed by the source): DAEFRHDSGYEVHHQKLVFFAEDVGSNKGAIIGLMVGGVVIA
METHOD: SPR (MASS-1), antibody immobilized, A-beta42 oligomer injected
READOUT: Binding to oligomer prep (BRU)
Provide the reading as a plain figure in BRU.

Some binders with recorded Binding to oligomer prep (BRU):
>>> observed("parental antibody, PMN310 humanized antibody variant VH2/Vk5 (human IgG4 S241P / kappa) (antibody, V domains shown, also called parental huPMN310; huPMN310) VH: QVQLVQSGAEVKKPGASVKMSCKASGYSFTSYWINWVKQRPGQGLEWIGDVHPGRGVSTYNAKFKSRATLTLDTSISTAYMELSSLRSEDTAVYYCSRSHGNTYWFFDVWGQGTTVTVSS VL: DVLMTQSPLSLPVTLGQPASISCRSSQSIVHSNGNTYLEWYQQRPGQSPRLLIYKVSNRFSGVPDRFSGSGSGTDFTLKISRVEAEDVGVYYCFQGSHVPFTFGQGTKLEIKR")
85.6
>>> observed("Clone 14 (affinity matured VH with parental Vk, human IgG4 S241P / kappa) (antibody, V domains shown) VH: QVQLVQSGAEVKKPGASVKMSCKASGYSFTSYWINWVKQRPGQGLEWIGDVHPGRGVSTYNAKFKSRATLTLDTSISTAYMELSSLRSEDTAVYYCAKSDASGYWFFDVWGQGTTVTVSS VL: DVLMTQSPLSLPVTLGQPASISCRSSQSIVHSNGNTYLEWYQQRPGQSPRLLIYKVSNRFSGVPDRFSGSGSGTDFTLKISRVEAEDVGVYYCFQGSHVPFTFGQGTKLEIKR")
30.8
>>> observed("Clone 4 (affinity matured VH with parental Vk, human IgG4 S241P / kappa) (antibody, V domains shown) VH: QVQLVQSGAEVKKPGASVKMSCKASGYSFTSYWINWVKQRPGQGLEWIGDVHPGRGVSTYNAKFKSRATLTLDTSISTAYMELSSLRSEDTAVYYCARVSPTGYWFFDVWGQGTTVTVSS VL: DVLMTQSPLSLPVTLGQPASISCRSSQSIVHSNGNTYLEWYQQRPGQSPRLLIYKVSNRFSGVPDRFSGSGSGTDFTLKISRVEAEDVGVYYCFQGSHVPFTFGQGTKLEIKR")
57.3

# evaluate next
Entry under review: Clone 5 (affinity matured VH with parental Vk, human IgG4 S241P / kappa) (antibody, V domains shown) VH: QVQLVQSGAEVKKPGASVKMSCKASGYSFTSYWINWVKQRPGQGLEWIGDVHPGRGVSTYNAKFKSRATLTLDTSISTAYMELSSLRSEDTAVYYCARGALSPYWFFDVWGQGTTVTVSS VL: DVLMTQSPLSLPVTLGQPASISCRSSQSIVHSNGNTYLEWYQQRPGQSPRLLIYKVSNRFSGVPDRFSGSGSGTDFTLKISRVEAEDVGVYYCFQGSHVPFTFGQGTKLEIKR . Reported Binding to oligomer prep (BRU)? 223
